Test system: E. coli NIHJ JC-2
Assay: Antimicrobial activities, MIC
Type: cell-based
Conditions: Sensitivity Disk agar-N+5% Horse blood, inoculants 10^6 CFU/ml
METRIC_NAME: minimum inhibiting concentrations (MIC) (µg/mL)

MOLECULE: CSc1c2sc(C3=C(C(=O)[O-])N4C(=O)[C@H]([C@@H](C)O)[C@H]4[C@H]3C)cn2c[n+]1CC(N)=O [Example 3]
METRIC_NAME: minimum inhibiting concentrations (MIC)
QUALIFIER_SYMBOL: =
DATA_VALUE: 0.025
//
MOLECULE: CSc1c2sc(C3=C(C(=O)[O-])N4C(=O)[C@H]([C@@H](C)O)[C@H]4[C@H]3C)cn2c[n+]1C [Example 2]
METRIC_NAME: minimum inhibiting concentrations (MIC)
QUALIFIER_SYMBOL: =
DATA_VALUE: 0.025
//
MOLECULE: CSc1c2sc(C3=C(C(=O)[O-])N4C(=O)[C@H]([C@@H](C)O)[C@H]4[C@H]3C)cn2c[n+]1C[C@H](O)CN.Cl [Example 99]
METRIC_NAME: minimum inhibiting concentrations (MIC)
QUALIFIER_SYMBOL: =
DATA_VALUE: 0.05
//
MOLECULE: C[C@@H](O)[C@H]1C(=O)N2C(C(=O)[O-])=C(c3cn4c[n+](C)cc4s3)[C@H](C)[C@H]12 [Compound B, reference compound]
METRIC_NAME: minimum inhibiting concentrations (MIC)
QUALIFIER_SYMBOL: <
DATA_VALUE: 0.025
//
MOLECULE: CSc1c2sc(C3=C(C(=O)[O-])N4C(=O)[C@H]([C@@H](C)O)[C@H]4[C@H]3C)cn2c[n+]1CCCN.Cl [Example 14]
METRIC_NAME: minimum inhibiting concentrations (MIC)
QUALIFIER_SYMBOL: =
DATA_VALUE: 0.05
